target: Calcium and integrin-binding protein 1 (Homo sapiens); assay: Primary qHTS for Identification of Calcium Integrin Binding Protein 1 (CIB1) Competitor (AID 1508620); settings: CIB1-GST / FITC-alphaIIb peptide fluorescence polarization; series mostly up to 114 µM;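 note: GST tagged CIB1 binding a fluorescein labelled alphaIIb integrin peptide tracer; top concentration of the series differs between compounds; % is set by controls: 0 for no effect and ±100 for the full control effect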
Records with an inconclusive call do not appear. Calls of active or inactive are those of the source. Calls come from the whole dose curve; as a rule, active = well fitted inhibition curve with a large enough effect; inconclusive = small, poorly fitted or top-dose-only effect; inactive = flat fitted curve, though single readings scatter.
Your response should consist of one outcome taken from active, inactive

# outcome recorded in this test, key = CC(C)(C)c1ccc(C(=O)Nc2ccc(-c3nc4ccccc4[nH]3)cc2)cc1
inactive

// return assay outcome for COc1cccc(C2=Nn3c(nnc3-c3cccc(OC)c3OC)SC2)c1
inactive

// param item: CCCn1c(C)nc2c(NC(C)CCCN(CC)CC)nc(C)nc21 (stereo not given) ; yields the recorded call
inactive

Which outcome was assigned to FC(F)(F)c1ccccc1-c1nc(NCc2ccc(Br)cc2)c2ccccc2n1 in this test?
inactive

Can you look up the reported call for Cc1cccc(C(=O)NCC(=O)OC(C(=O)Nc2cc(C(F)(F)F)ccc2Cl)c2ccccc2)c1 (stereo not given) for me?
inactive

# fetch the recorded call for COc1ccc(C2Nc3ccccc3C(=O)N2Cc2ccc(Cl)cc2)cc1COc1ccc(NC(C)=O)cc1 (stereo not given) here
inactive

Further cases:
Outcome logged for CC(C)Oc1cccc(-c2cnc(N3CCC(C(N)=O)CC3)s2)c1 in this assay:
inactive

Could you kindly confirm the outcome this assay logged for Cc1ccc(S(=O)(=O)Nc2ccc(C(=O)Nc3ncc(-c4ccccc4)s3)cc2)cc1 ?
inactive

Kindly provide the recorded test outcome for the following compound: Cn1ncc(-c2nnc(-c3ccccc3)n2CCCn2ccnc2)c1N
inactive

What is the recorded call for this compound in the test? COc1ccc(-c2ccc(CNc3ccc(N4CCN(C(=O)OC(C)(C)C)CC4)cc3)o2)cc1
inactive

Per the assay record, what outcome was assigned to N=c1c2c(ccn1CCCc1ccccc1)Oc1ccc3ccccc3c1C2c1ccccc1 (stereo not given) ?
inactive

----------
assay: qHTS Assay for Lipid Storage Modulators (AID 1519); settings: Drosophila S3 cells, BODIPY lipid droplet/cell ratio, laser cytometry; measured here: lipid channel max response; cells loaded with oleic acid
Results filed as inconclusive are left out.
MEASUREMENT LABEL: max response (%)
# unit: % | format: bare number

Tell me the measured max response of CNc1ncncc1-c1ccccc1OC , please.
13.5

----------
assay: AP1 Signaling Pathway (AID 357); details: ME-180 (cervical carcinoma) AP-1-bla reporter, EGF-induced, beta-lactamase ratio, 5 h; at 7.69 µM (top of the series) unless noted;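 note: ME-180 reporter cells stimulated with EGF at its EC50 level; % is set by controls: 0 for no effect and ±100 for the full control effect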
Results filed as inconclusive are left out. Calls of active or inactive are those of the source. Calls come from the whole dose curve; as a rule, active = well fitted curve in either direction with a large enough effect (not every such curve was filed as active); inconclusive = small, poorly fitted or top-dose-only effect, or another doubt; inactive = flat fitted curve, though single readings scatter.
MEASUREMENT LABEL: activity change, negative = inhibition

GET /values?readout=activity change, negative = inhibition&item= COc1ccccc1CN1CCCC2(CCNCC2)C1
-7.6% (inactive)

Form field: reported activity change, negative = inhibition of COCC(=O)N1CCC[C@@]2(CCN(C(=O)Nc3cccc(F)c3)C2)C1
-14.2% (inactive)

For Cc1nc2cnc(N3CCNCC3)nc2n(Cc2ccc(F)cc2)c1=O , what is its reported activity change, negative = inhibition?
7.46% (inactive)

Item under review: COCC(=O)N1CCC[C@@]2(CCN(Cc3ccccc3)C2)C1 . Reported activity change, negative = inhibition?
-0.884% (inactive)

Could you tell me which activity change, negative = inhibition is on file for COc1cccc(Cn2c(=O)c(-c3ccc(F)cc3)nc3cnc(N(C)C)nc32)c1 ?
12% (inactive)

Look at this compound and give its reported activity change, negative = inhibition. Cc1noc(C)c1C(=O)N1CCC2(CCCN(c3ccccc3)C2)CC1
-12.1% (inactive)

Quick check: activity change, negative = inhibition of c1csc(CNc2cc(-c3ccoc3)ncn2)c1 ?
-0.901% (inactive)

Give its activity change, negative = inhibition value. Item: CS(=O)(=O)N1CCC[C@@]2(CCN(Cc3nccs3)C2)C1
-5.88% (inactive)

***
# input compound: Cc1ccccc1-c1cc(Nc2ccccc2)ncn1 ; wanted: its activity change, negative = inhibition
-4.93% (inactive)

Given the entry Cc1noc(C)c1C(=O)N1CCC[C@@]2(CCN(C(=O)Nc3cccc(F)c3)C2)C1 , report its measured activity change, negative = inhibition.
-2.75% (inactive)

Field request: activity change, negative = inhibition | item: COc1cccc(Cn2c(=O)c(C)nc3cnc(OC)nc32)c1
-5.98% (inactive)

Cited source: PubChem BioAssay (NCATS)
